Data provenance is ChEMBL document CHEMBL3994654.

- tested_system: Glucose-dependent insulinotropic receptor (Homo sapiens)
- Sequence (Q8TDV5 whole entry): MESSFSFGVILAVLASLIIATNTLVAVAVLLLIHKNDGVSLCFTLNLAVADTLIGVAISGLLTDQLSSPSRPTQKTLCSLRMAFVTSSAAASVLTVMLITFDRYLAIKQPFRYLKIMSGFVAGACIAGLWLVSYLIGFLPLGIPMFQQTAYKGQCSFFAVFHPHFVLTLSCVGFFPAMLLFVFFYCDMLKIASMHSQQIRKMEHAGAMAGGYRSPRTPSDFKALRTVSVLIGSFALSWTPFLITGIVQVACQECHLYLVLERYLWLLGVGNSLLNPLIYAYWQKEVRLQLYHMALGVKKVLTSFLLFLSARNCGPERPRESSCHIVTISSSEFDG
- test_summary: Agonist activity at human GPR119 expressed in HEK293 cells assessed as increase in intracellular cAMP level after 60 mins by HTRF assay
# pEC50 per entry
FYI, pEC50 means -log10 of a concentration in mol per litre.

Examples with their reported pEC50 follow.
O=C(Cc1ccc(OCC[C@@H]2C[C@@H]2C2CCN(c3ncc(Cl)cn3)CC2)cc1F)N1CCCCC1    8.82
O=C(Cc1ccc(OCC[C@@H]2C[C@@H]2C2CCN(c3ncc(Cl)cn3)CC2)cc1F)N1CC(O)C1    9.10
COCc1cnc(N2CCC([C@H]3C[C@H]3CCOc3ccc(CC(=O)N4CCC4)c(F)c3)CC2)nc1    9.15

Memo: "O=C(Cc1ccc(OCC[C@@H]2C[C@@H]2C2CCN(c3ncc(Cl)cn3)CC2)cc1)NC1CC1" , reported pEC50: 8.74

Memo: "O=C(Cc1ccc(OCC[C@@H]2C[C@@H]2C2CCN(c3ncc(Cl)cn3)CC2)cc1F)N1CCC1" , reported pEC50: 9.70

Memo: "O=C(Cc1ccc(OCC[C@@H]2C[C@@H]2C2CCN(c3ncc(Cl)cn3)CC2)nc1)N1CCC1" , reported pEC50: 8.03

Memo: "O=C(Cc1ccc(OCC[C@@H]2C[C@@H]2C2CCN(c3ncc(Cl)cn3)CC2)cc1)N1CCC1" , reported pEC50: 9.10

Memo: "CCc1cnc(N2CCC([C@H]3C[C@H]3CCOc3ccc(CC(=O)N4CCC4)c(F)c3)CC2)nc1" , reported pEC50: 9.40

Memo: "O=C(Cc1ccc(OCC[C@@H]2C[C@@H]2C2CCN(c3ncc(Cl)cn3)CC2)c(F)c1)N1CCC1" , reported pEC50: 8.66
